- Measured on: UniProt:P29275
- Sequence (P29275 whole entry): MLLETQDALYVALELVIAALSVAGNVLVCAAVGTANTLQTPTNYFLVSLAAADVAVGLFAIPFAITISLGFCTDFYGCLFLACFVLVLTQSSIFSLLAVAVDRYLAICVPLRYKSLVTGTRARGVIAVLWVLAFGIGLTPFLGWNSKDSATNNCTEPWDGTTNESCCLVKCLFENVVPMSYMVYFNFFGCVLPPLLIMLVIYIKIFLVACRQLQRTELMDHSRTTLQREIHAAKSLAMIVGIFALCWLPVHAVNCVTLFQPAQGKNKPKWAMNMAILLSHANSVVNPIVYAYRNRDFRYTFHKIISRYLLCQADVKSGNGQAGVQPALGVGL
- Method summary: Receptor-stimulated activity in CHO cells stably transfected with Human recombinant Adenosine A2B receptor measuring adenylyl cyclase activity
Field: EC50. Provide a value for each of the compounds that follow.
Express your answer in µM, writing the number without its unit.

Input CCCCC#Cc1nc(NCC)c2ncn([C@@H]3O[C@H](CO)[C@@H](O)[C@H]3O)c2n1 . Output EC50: 100

Just so you know, measured EC50 for CC(C)Nc1nc(C#C[C@@H](O)c2ccccc2)nc2c1ncn2[C@@H]1O[C@H](CO)[C@@H](O)[C@H]1O came out at 0.96

For this compound ( CC(C)(C)OC(=O)C1CCCN1C[C@@H](O)[C@H](Cc1ccccc1)NC(=O)[C@H](CC(N)=O)NC(=O)OCc1ccccc1 (some centres undefined) ), measured EC50 is 6.1

Reported EC50 ( Nc1nc(C#C[C@H](O)c2ccccc2)nc2c1ncn2[C@@H]1O[C@H](CO)[C@@H](O)[C@H]1O ) = 6.2

So, Nc1nc(C#CC(O)c2ccccc2)nc2c1ncn2[C@@H]1O[C@H](CO)[C@@H](O)[C@H]1O (some centres undefined) ? Its EC50 was 2.4

Per the records, this compound ( CC(C)Nc1nc(C#C[C@H](O)c2ccccc2)nc2c1ncn2[C@@H]1O[C@H](CO)[C@@H](O)[C@H]1O ) has EC50 equal to 8.9

Reported EC50 for CNc1nc(C#C[C@@H](O)c2ccccc2)nc2c1ncn2[C@@H]1O[C@H](CO)[C@@H](O)[C@H]1O was 2.6

Briefly, EC50 measured for CNc1nc(C#C[C@H](O)c2ccccc2)nc2c1ncn2[C@@H]1O[C@H](CO)[C@@H](O)[C@H]1O : 100

Value of measured EC50 for the entry CCNC(=O)[C@H]1O[C@@H](n2cnc3c(N)nc(C#C[C@H](O)c4ccccc4)nc32)[C@H](O)[C@@H]1O : 2.4
